Assay: Photophysical analysis: absorption, excitation and emission at 10 μM (Example 5)
Format: physicochemical
Conditions: acetonitrile at 10 μM
measure: λabs

Would you please look over these solved cases?
O=S(=O)([O-])c1ccc2c(c1)-c1cc(-c3ccc(-c4ccccc4)cc3)ccc1S2(=O)=O.[Na+] [Compound 16b] | 246 nm
O=S(=O)(Oc1ccccc1)c1ccc2c(c1)-c1cc(-c3cccc4ccccc34)ccc1S2(=O)=O | 243 nm
O=S(=O)(Oc1ccccc1)c1ccc2c(c1)-c1cc(-c3ccccc3)ccc1S2(=O)=O | 238 nm
O=S(=O)([O-])c1ccc2c(c1)-c1cc(-c3cccc4ccccc34)ccc1S2(=O)=O.[Na+] [Compound 17b] | 250 nm
O=S(=O)(Oc1ccccc1)c1ccc2c(c1)-c1cc(-c3ccc(-c4ccccc4)cc3)ccc1S2(=O)=O | 243 nm

// moving on: another record for λabs
Lookup: Give the value of λabs reported for the following: O=S(=O)([O-])c1ccc2c(c1)-c1cc(-c3ccccc3)ccc1S2(=O)=O.[Na+] [Compound 15b]
Found: 248 nm

Data origin: patent US10221153B2
